# assay-text: growth inhibition of ugtP-null S. aureus, primary screen, RN4220 ugtP deletion, OD600 (AID 1259309);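 note: plate controls were untreated wells for no effect and antibiotic for full effect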
# recorded-conditions: 16 h, hits give high values
The campaign covered roughly 330,000 compounds. About 1,800 (0.55%) were called active. The list comes from a sample in which actives are over-represented; it also holds close analogues and randomly drawn compounds.
measurement-type: growth inhibition (%)
Only the number, expressed in %, is required.

Briefly, growth inhibition measured for CCOC(=O)c1c(NC(=O)C(C)Sc2c[nH]c3ccccc23)sc2c1CCC2 (centres undefined) : 25.3

Measured growth inhibition of COC(=O)C1=C(C(=O)OC)C2N(C)c3ccccc3[C@@]23CC(C(=O)OC)N(C(C)=O)C3=N1 (some centres undefined) : 3.76

The reported growth inhibition of the compound O=C(NN=Cc1cccnc1)C1CC1(c1ccccc1)c1ccccc1 (centres undefined) was 9.47
